T/C overview
Tested on: L1210 leukemia ip in BDF1 mice, survival T/C
Assay: NCI In Vivo Anticancer Drug Screen. Data for tumor model L1210 Leukemia (intraperitoneal) in B6D2F1 (BDF1) mice
Details: endpoint: mean survival time; dose: 50.0 mg/kg/injection; schedule: Q04DX003 (ip); vehicle: saline; higher = longer survival
Inconclusive results and toxic doses are left out.

Sample answers from the record:
>>> val("NNC(=O)c1ccncc1")
"101 % of control"
>>> val("COc1cc2c3c(c1)C(O)CC[N+]3(C)CCC2 (stereo not drawn)")
"112 % of control"
>>> val("Cc1cc(NCC2CCNCC2)nc(/N=C(\\N)Nc2ccc(Cl)c(Cl)c2)n1")
"102 % of control"
>>> val("CN1CCC(=C(C#N)c2ccccc2)CC1")
"97 % of control"

Q: Hello, I am looking for reported T/C with L1210 leukemia ip in BDF1 mice, survival T/C for CCCC(CCN1CCCC1)(CNC(=O)CN(CC)CC)c1cccc2ccccc12 (stereo not drawn) . Could you help?
A: 104 % of control

Q: Next record, please: Cc1cc(Oc2ccc(Cl)cc2NC(=O)Nc2ccc(Cl)c(Cl)c2)c(S(=O)(=O)O)cc1Cl
A: 103 % of control

Q: Quick one: CC1(C)CC(=NNC2=NC=NC3=NC=NC32)CC(C)(C)N1O (stereo not drawn)
A: 102 % of control

Q: Param item: OCCN1CCC(CCCC2CCNCC2)CC1
A: 98 % of control

Q: Cool, now COCCNCCOC
A: 106 % of control

Q: Now the compound C1=C(c2ccccc2)S/C(=C/c2ccccc2)S1
A: 88 % of control

Q: Also C=CC#N , if possible.
A: 91 % of control

Q: Would you mind doing NC1CC[N-]CC1.NC1CC[N-]CC1.[Cl][Pt+2]([Cl])([Cl])[Cl] as well?
A: 106 % of control

Q: What do we get for CCCCNC(C)(C)CO ?
A: 102 % of control
